Numbers sourced from ChEMBL document CHEMBL1137360.

target: Urotensin-2 receptor (Homo sapiens, UniProt Q9UKP6); assay: Displacement of [125I]human urotensin-2 from human GPR14 transfected in CHO cells
Sequence (Q9UKP6 whole entry): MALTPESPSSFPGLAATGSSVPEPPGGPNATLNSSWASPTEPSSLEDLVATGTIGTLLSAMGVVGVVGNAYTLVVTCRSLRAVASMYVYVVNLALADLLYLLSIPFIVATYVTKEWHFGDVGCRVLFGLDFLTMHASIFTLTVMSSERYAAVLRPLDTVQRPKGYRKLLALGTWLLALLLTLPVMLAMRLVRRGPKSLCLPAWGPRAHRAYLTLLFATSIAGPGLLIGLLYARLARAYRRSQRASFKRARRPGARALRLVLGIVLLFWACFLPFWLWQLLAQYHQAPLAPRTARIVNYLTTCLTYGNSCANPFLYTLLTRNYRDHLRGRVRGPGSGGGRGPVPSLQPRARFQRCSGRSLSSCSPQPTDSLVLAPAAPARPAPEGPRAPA
Positions of bridges follow the written chain, without caps; N, C: chain ends. Non-standard residues stand in square brackets, D forms with d. Residues, ends and D or L forms follow the SMILES beside them. Phe(4-COOH) = N[C@@H](Cc1ccc(C(=O)O)cc1)C(=O)O; Phe(4-tBu) = CC(C)(C)c1ccc(C[C@H](N)C(=O)O)cc1; Cha = N[C@@H](CC1CCCCC1)C(=O)O; NMeD = CN[C@@H](CC(=O)O)C(=O)O; Pen = CC(C)(S)[C@H](N)C(=O)O
# note: exactly 10 nM is not below, so it is -1; use 1 for Ki strictly under it

{"Molecule": "CC(C)[C@H](NC(=O)[C@@H]1CSSC[C@H](NC(=O)[C@@H](N)CC(=O)O)C(=O)N[C@@H](Cc2ccccc2)C(=O)N[C@@H](Cc2c[nH]c3ccccc23)C(=O)N[C@@H](CCCCN)C(=O)N[C@@H](Cc2ccc(C(C)(C)C)cc2)C(=O)N1)C(=O)O (H-DCFWK[Phe(4-tBu)]CV-OH; disulfide 2-7)", "Group": 1}
{"Molecule": "CC(C)[C@H](NC(=O)[C@@H]1CSSC[C@H](NC(=O)[C@@H](N)CC(=O)O)C(=O)N[C@@H](Cc2ccccc2)C(=O)N[C@@H](Cc2c[nH]c3ccccc23)C(=O)N[C@@H](CCCCN)C(=O)N[C@@H](Cc2ccc(O)cc2)C(=O)N1)C(=O)O (H-DCFWKYCV-OH; disulfide 2-7)", "Group": 1}
{"Molecule": "CC(C)[C@H](NC(=O)[C@@H]1CSSC[C@H](NC(=O)[C@H](C)N)C(=O)N[C@@H](CC2CCCCC2)C(=O)N[C@@H](Cc2c[nH]c3ccccc23)C(=O)N[C@@H](CCCCN)C(=O)N[C@@H](Cc2ccc(O)cc2)C(=O)N1)C(=O)O (H-AC[Cha]WKYCV-OH; disulfide 2-7)", "Group": -1}
{"Molecule": "CC(C)[C@H](NC(=O)[C@@H]1CSSC(C)(C)[C@H](NC(=O)[C@@H](N)CC(=O)O)C(=O)N[C@@H](CC2CCCCC2)C(=O)N[C@@H](Cc2c[nH]c3ccccc23)C(=O)N[C@@H](CCCCN)C(=O)N[C@@H](Cc2ccc(O)cc2)C(=O)N1)C(=O)O (H-D[Pen][Cha]WKYCV-OH; disulfide 2-7)", "Group": -1}
{"Molecule": "CC(C)[C@H](NC(=O)[C@@H]1CSSC[C@H](NC(=O)[C@@H](N)CC(=O)O)C(=O)N[C@@H](Cc2ccccc2)C(=O)N[C@@H](Cc2c[nH]c3ccccc23)C(=O)N[C@@H](CCCCN)C(=O)N[C@@H](Cc2ccc(C(=O)O)cc2)C(=O)N1)C(=O)O (H-DCFWK[Phe(4-COOH)]CV-OH; disulfide 2-7)", "Group": -1}
{"Molecule": "CC(C)[C@H](NC(=O)[C@@H]1CSSC[C@H](NC(=O)[C@@H](N)CCC(=O)O)C(=O)N[C@@H](Cc2ccccc2)C(=O)N[C@@H](Cc2c[nH]c3ccccc23)C(=O)N[C@@H](CCCCN)C(=O)N[C@@H](Cc2ccc(O)cc2)C(=O)N1)C(=O)O (H-ECFWKYCV-OH; disulfide 2-7)", "Group": 1}

Does this molecule meet the criterion Ki < 10 nM? CN[C@@H](CC(=O)O)C(=O)N[C@H]1CSSC[C@@H](C(=O)N[C@H](C(=O)O)C(C)C)NC(=O)[C@H](Cc2ccc(O)cc2)NC(=O)[C@H](CCCCN)NC(=O)[C@H](Cc2c[nH]c3ccccc23)NC(=O)[C@H](Cc2ccccc2)NC1=O (H-[NMeD]CFWKYCV-OH; disulfide 2-7) 1
